# ASSAY TARGET: IDO (Homo sapiens)
# Sequence (P14902 whole entry): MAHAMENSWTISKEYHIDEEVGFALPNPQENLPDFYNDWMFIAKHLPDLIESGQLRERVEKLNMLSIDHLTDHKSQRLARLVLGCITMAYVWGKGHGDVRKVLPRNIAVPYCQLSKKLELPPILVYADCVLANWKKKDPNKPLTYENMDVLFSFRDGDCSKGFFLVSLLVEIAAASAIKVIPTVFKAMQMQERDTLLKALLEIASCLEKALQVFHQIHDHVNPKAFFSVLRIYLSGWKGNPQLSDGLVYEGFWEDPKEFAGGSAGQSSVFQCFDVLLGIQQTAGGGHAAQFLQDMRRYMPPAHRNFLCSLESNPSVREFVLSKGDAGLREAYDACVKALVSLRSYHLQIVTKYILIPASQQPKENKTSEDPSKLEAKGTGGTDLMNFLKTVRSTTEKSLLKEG
# TEST SUMMARY: LLE_IDO_ABS_DR (IDO assay)
pIC50: −log10 of the molar value.
Threshold rule: pIC50 greater than or equal to 7 is class 1; below that, class 0.

In [3]: df
Out[3]:
                                    compound        assay_target  class_label
 0  CC(C)CN(c1ccc(-c2ccccc2C(=O)O)cc1NC(=O)Nc1ccccc1F)C(C)C [Example 154]  IDO (Homo sapiens)      class 1
 1  Cc1ccc(NC(=O)Nc2cc(-c3ccccc3-c3nnn[nH]3)ccc2Nc2ccccc2C(C)(C)C)cc1 [Example 208]  IDO (Homo sapiens)      class 1
 2  CN(c1ncc(-c2ccccc2-c2nnn[nH]2)cc1NC(=O)Nc1ccccc1F)C1CCCCC1 [Example 37]  IDO (Homo sapiens)      class 1
 3  CC(C)CN(CC(C)C)c1ccc(-c2ccccc2-c2nnn[nH]2)cc1NC(=O)Nc1ccc(F)c(S(C)(=O)=O)c1 [Example 279]  IDO (Homo sapiens)      class 0
 4  O=C(Nc1ccc(OC(F)(F)F)cc1)Nc1cc(-c2ccccc2-c2nnn[nH]2)ccc1N1CCCc2ccccc21 [Example 363]  IDO (Homo sapiens)      class 0
 5  CC(C)CN(CC(C)C)c1ccc(-c2ccccc2-c2nnn[nH]2)cc1NC(=O)Nc1c(F)cc(F)cc1F [Example 282]  IDO (Homo sapiens)      class 1
 6  CCCN(c1ccc(-c2cc(F)ccc2C(=O)O)cc1NC(=O)Nc1ccccc1F)C1CCCC1 [Example 167]  IDO (Homo sapiens)      class 1
 7  O=C(Nc1ccc(C2CC2)c(F)c1)Nc1cc(-c2ccccc2-c2nnn[nH]2)ccc1N(CCc1ccccc1)CCC(F)(F)F [Example 296]  IDO (Homo sapiens)      class 0
 8  O=C(Nc1ccc(C2CC2)c(F)c1)Nc1cc(-c2ccccc2-c2nnn[nH]2)ccc1N(CCC(F)(F)F)Cc1ccc(OC(F)(F)F)cc1 [Example 353]  IDO (Homo sapiens)      class 1
 9  Cc1ccc(NC(=O)Nc2cc(-c3ccccc3-c3nnn[nH]3)ccc2N(CCCC(F)(F)F)Cc2ccc(Cl)cc2)cc1 [Example 320]  IDO (Homo sapiens)      class 1
10  Cc1ccc(NC(=O)Nc2cc(-c3cccc(F)c3C(=O)O)ccc2N(CC(C)C)CC(C)C)cc1 [Example 150]  IDO (Homo sapiens)      class 1
11  CC(C)CN(CC(C)C)c1ccc(-c2ccccc2-c2nnn[nH]2)cc1NC(=O)Nc1ccc(N=[N+]=[N-])cc1 [Example 285]  IDO (Homo sapiens)      class 1
12  Cc1ccc(NC(=O)Nc2cc(-c3ccccc3-c3nnn[nH]3)ccc2N(CCC(F)(F)F)Cc2ccccn2)cc1 [Example 506]  IDO (Homo sapiens)      class 1
13  COc1ccc(-c2ccc(N(C)c3ccccc3C(C)(C)C)c(NC(=O)Nc3ccccc3F)c2)cc1C(=O)O [Example 209]  IDO (Homo sapiens)      class 0
14  CC(C)CN(c1ccc(-c2ccccc2C(=O)O)cc1NC(=O)Nc1ccccc1F)C1CCCCC1 [Example 122]  IDO (Homo sapiens)      class 1
15  COc1ccc(-c2ccc(N(CC(C)C)CC(C)C)c(NC(=O)Nc3ccc(C)cc3)c2)c(NS(=O)(=O)C(F)(F)F)c1 [Example 71]  IDO (Homo sapiens)      class 0
16  Cc1ccc(NC(=O)Nc2cc(-c3ccccc3C(=O)O)ccc2N(CC2CC2)CC2CC2)cc1 [Example 67]  IDO (Homo sapiens)      class 0
17  Cc1ccc(NC(=O)Nc2cc(-c3ccccc3C(=O)O)ccc2N(CC(F)F)C2CCCCC2)cc1 [Example 196]  IDO (Homo sapiens)      class 1
18  CCCCN(CCCC)c1ccc(-c2sccc2C(=O)O)cc1NC(=O)Nc1ccc(C)cc1 [Example 91]  IDO (Homo sapiens)      class 1
19  CCCN(c1ccc(-c2ccccc2-c2nnn[nH]2)cc1NC(=O)Nc1ccccc1F)C1CCCC1 [Example 170]  IDO (Homo sapiens)      class 1
20  Cc1ccc(NC(=O)Nc2cc(-c3ccccc3C(=O)O)ccc2N(CC2CC2)C2CCCCC2)cc1 [Example 83]  IDO (Homo sapiens)      class 1
21  Cc1ccc(NC(=O)Nc2cc(-c3ccccc3-c3nnn[nH]3)cc(Cl)c2N(CC(C)C)CC(C)C)cc1 [Example 39]  IDO (Homo sapiens)      class 1
22  Cc1ccc(NC(=O)Nc2cc(-c3cc(F)ccc3C(=O)O)ccc2N(CCC(F)(F)F)Cc2ccccc2Cl)cc1 [Example 18]  IDO (Homo sapiens)      class 0
23  CC(C)CN(CC(C)C)c1ccc(-c2ccccc2-c2nn[nH]n2)cc1NC(=O)NC(C)(C)Cc1ccc(F)cc1 [Example 240]  IDO (Homo sapiens)      class 0
